- System: intracellular S. aureus NRS384 in THP-1 macrophages
- test: Intracellular killing assay 2 (rifamycin analogs, S. aureus in THP-1 macrophages)
- Type: cell-based, Staphylococcus aureus
- test-parameters: Staphylococcus aureus, NRS384, 2 h; lowest concentration giving intracellular S. aureus below limit of detection (50 cfu/mL) in THP-1 macrophages; median of at least two experiments; read-out: S. aureus Intracellular killing MIC
reported-endpoint: MIC (µM)
Your answer should be a plain number; it is taken to be in µM.

Before answering, review these 2 worked examples.
{"molecule": "CO[C@H]1/C=C/O[C@@]2(C)Oc3c(C)c(O)c4c(=O)c(c5oc6cc(OCCN(C)C)c(Cl)cc6nc-5c4c3C2=O)NC(=O)/C(C)=C\\C=C\\[C@H](C)[C@H](O)[C@@H](C)[C@@H](O)[C@@H](C)[C@H](OC(C)=O)[C@@H]1C", "target-entity": "intracellular S. aureus NRS384 in THP-1 macrophages", "MIC / µM": 1}
{"molecule": "CO[C@H]1/C=C/O[C@@]2(C)Oc3c(C)c(O)c4c(=O)c(c5oc6cc(OCCN7CCCC7)cc(O)c6nc-5c4c3C2=O)NC(=O)/C(C)=C\\C=C\\[C@H](C)[C@H](O)[C@@H](C)[C@@H](O)[C@@H](C)[C@H](OC(C)=O)[C@@H]1C [Analog 29c]", "target-entity": "intracellular S. aureus NRS384 in THP-1 macrophages", "MIC / µM": 0.04}

Note: attention shifts to another entry.
Returns the measured MIC for the input molecule. Input: CO[C@H]1/C=C/O[C@@]2(C)Oc3c(C)c(O)c4c(=O)c(c5oc6cc(OCCN(C)c7ccccn7)cc(O)c6nc-5c4c3C2=O)NC(=O)/C(C)=C\C=C\[C@H](C)[C@H](O)[C@@H](C)[C@@H](O)[C@@H](C)[C@H](OC(C)=O)[C@@H]1C [Analog 29h]
1

meta.source: patent US11666658B2
